Values compiled from PubChem BioAssay AID492992.

biological target: Potassium channel subfamily K member 9 (Homo sapiens); assay: KCNK9 potassium channel inhibitors, confirmation, HEK293 cells, thallium flux, duplicate (AID 492992); settings: FluxOR thallium flux fluorescence, at 10 µM
Hit rate of the full screen: of about 4,900 compounds, about 2,100 (43%) were called active.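 How the source made its calls: active means thallium signal inhibited by more than 5 SD of the compound-free buffer control wells, on both duplicate plates; inactive means the rest.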 So high a share suggests a set chosen from earlier hits. A selection follows.
Form entry, call: pick from active, inactive

Example entries and their recorded answers appear below.
CC(C)CC(COCc1ccc(Cl)cc1)N1CCN(C(=O)c2ccc(C(F)(F)F)cc2)CCC1=O (stereo not drawn) = active
CCOC(=O)Cc1cc(=O)[nH]c(=O)[nH]1 = active
COc1cc(Cl)c(S(=O)(=O)N2CCN(Cc3ccc4c(c3)OCO4)CC2)cc1Cl = inactive
O=C(CSCc1ccc(Cl)cc1)N1CCN(Cc2ccc3c(c2)OCO3)CC1 = inactive

Fill in: this test's call for CCC(c1nnnn1Cc1ccco1)N(CCc1ccccc1)Cc1cc2cccc(C)c2[nH]c1=O (stereo not drawn) is ___
active

Fill in: this test's call for CCOc1ccc(CN(Cc2ccco2)C(c2cccs2)c2nnnn2C(C)(C)C)cc1 (stereo not drawn) is ___
active

Fill in: this test's call for Cc1ccc(NC(=O)c2cc([N+](=O)[O-])ccc2Cl)c(O)c1 is ___
active

Fill in: this test's call for CC1=NN(c2cccc(Cl)c2)C(=O)C12CC(C)=C(C)CS2 (stereo not drawn) is ___
active

Fill in: this test's call for COc1ccc(C(=O)Nc2ccccc2C(=O)N/N=C/c2ccccc2OC)cc1 is ___
active
